System: MCF-7 cells
Assay: ELICA of mitotic cells (Enzyme-Linked Immuno-Cytochemical assay, TG-3 antibody)
Assay type: cell-based, human
Settings: MCF-7 cells, FIG. 2; read-out: IC50, antimitotic activity as determined by ELICA
pIC50: −log10 of the molar value.
Recorded Metric: pIC50

Molecule	pIC50
COC(=O)/C1=C/[C@@H]2[C@@H](C(C)C)CC=C(C)[C@@H]2C[C@H](OC(=O)/C=C/c2cn(C)cn2)[C@]2(C)C=C[C@@]1(O)O2 [Sarcodictyin A, sarcodictyin A]	~5.70
CC(=O)O[C@@H]1[C@H](OC/C2=C/[C@@H]3[C@@H](C(C)C)CC=C(C)[C@@H]3C[C@H](OC(=O)/C=C/c3cn(C)cn3)[C@]3(C)C=C[C@@]2(O)O3)OC[C@@H](O)[C@H]1O [desmethyleleutherobin]	~7.70

The reported value for CO[C@]12C=C[C@](C)(O1)[C@@H](OC(=O)/C=C/c1cn(C)cn1)C[C@@H]1[C@H](/C=C\2CO[C@@H]2OC[C@@H](O)[C@@H](O)[C@@H]2OC(C)=O)[C@@H](C(C)C)C=C[C@@]1(C)O [caribaeoside] in terms of pIC50 is ~4.70

The reported value for CO[C@]12C=C[C@](C)(O1)[C@@H](OC(=O)/C=C\c1cn(C)cn1)C[C@H]1C(C)=CC[C@H](C(C)C)[C@H]1/C=C\2CO[C@@H]1OC[C@@H](O)[C@@H](O)[C@@H]1OC(C)=O [Z-eleutherobin] in terms of pIC50 is ~6.60

The reported value for CO[C@]12C=C[C@](C)(O1)[C@@H](OC(=O)/C=C/c1cn(C)cn1)C[C@H]1C(C)=CC[C@H](C(C)C)[C@H]1/C=C\2CO[C@@H]1OC[C@@H](O)[C@@H](OC(C)=O)[C@@H]1O [isoeleutherobin A] in terms of pIC50 is ~7.30

Source of measurements: patent US6812037B1
